Attribution: the EternaBench riboswitch data

Tested on: MS2 coat protein
Assay: apparent Kd, MS2 coat protein; higher = weaker binding; RNA-MaP array; FMN 200 µM where present
Details: ligand present: flavin mononucleotide; designed as: OFF switch for flavin mononucleotide
Assign a class from recorded apparent Kd; defined classes: lower band (below 20 nM), central band (20 nM to below 50 nM), upper band (50 nM or more)

{"columns": ["Item Sequence", "Assigned Label"],
 "data": [
  ["AGCGGCGCGGGCCACCGCAAAACCAGAAGGACAUGAGGAUCACCCAUGUAACAAAACAGGGCGGUGUAGGAUAUGGCAGACCCA", "lower band"],
  ["GCCUGCCGUGGCACGGUAGCACCGGAGGAUAUCCGCGUCGGUCAUGACAUGAGGAUCACCCAUGUGGAGAAGGCUGGUUUGUCC", "central band"],
  ["AAAACGUGAGGAUAUCCAAUAUAUGACAUGAGGAUCACCCAUGUUUCCACUCGUACCUCCGGAGAAGGCACUUUUU", "central band"],
  ["CCAAGAAUAGGAUAUACACCGUGUCAGCUUUUAUAUAUCGCACAUGAGGAUCACCCAUGUAGAAGGGUUCUCUC", "upper band"],
  ["AUUUAGAGAGGAUAUAUUAUGUGAAACAUGAGGAUCACCCAUGUAAUAUGAUGGAUAUAAAUAGAAGGCUCAUUUA", "central band"],
  ["CGAUAUACGACGGACGGAAACGUACAUGAGGAUCACCCAUGUAGAAGGCGAUCCGCAACGCGGAUUGAGGAUAUAUAGUAUACA", "lower band"],
  ["UUACACUUGAGGGUCUCCCUUGACAUGAGGAUCACCCAUGUGCAGGAUAUACGUGUGAUGGUAUAGUAGAAGGGCACUCUAUGU", "central band"],
  ["CGGAGGUCAGGAUAUGCAUGGCGGGACUUGCGUCGUGGCGUGCAGAAGGGACAUGAGGAUCACCCAUGUGGAGG", "upper band"]
]}

###

System: MS2 coat protein
Test: apparent Kd, MS2 coat protein; higher = weaker binding; RNA-MaP array; theophylline 2 mM where present
Settings: designed as: ON switch for theophylline; no ligand
# apparent Kd per entry

{"columns": ["Item Sequence", "Measured Target", "apparent Kd (nM)"],
 "data": [
  ["ACGGAGAUUGCUAAAUGUUGGCGAGCGGAUACCAGCCUAUUAUUGGGCCCUUGGCAGCCGACAUGAGGAUCACCCAUGUAAACAA", "MS2 coat protein", 79],
  ["GCUGUAAGUGCAGAUACCAGCAGGUGAUAUUUCUAAUGACAUGAGGAUCACCCAUGUAACUGCCCUUGGCAGCUGCACUUACAGC", "MS2 coat protein", 57.6],
  ["UGUAACAUGAGGAUCACCCAUGUGAGUGAUACCAGACUAGUGUUGGUCCCUUGGCAGCACGCUGGGCGAGUGUGUAGUCUAUGCG", "MS2 coat protein", 92.8],
  ["ACAUGAGGAUCACCCAUGUCACGGCACGAUACCAGCUGAUCCGGUGGCCCUUGGCAGCGUGACGUUUGGUCCCGCGGAUCACACG", "MS2 coat protein", 75.4],
  ["UAAAACAUGAGGAUCACCCAUGUAAUUGAUACCAGAGUGAUGAUCCUCCCUUGGCAGCAAAACGCUGAUUGGAAACAAUCAGCGA", "MS2 coat protein", 113],
  ["GCACGACAUGAGGAUCACCCAUGUGCAGAUACCAGUAAUGUAUGUUACCCUUGGCAGCUGAGUAGGUCUGGAGGGCUAUAGGUAA", "MS2 coat protein", 13.3],
  ["AGUGUUAUAACUGAUACCAGACUUUUGCUUAUACAUGAGGAUCACCCAUGUAAAAUGGUUGUCCCUUGGCAGCAGAAAAUACACA", "MS2 coat protein", 84],
  ["UGAUCCUAGACUGAUACCAGUCAUGAGUACAUGAGGAUCACCCAUGUCCAGGGACUCAAUGACCCUUGGCAGCAGAACCUAGUUC", "MS2 coat protein", 193],
  ["UACAUGAGGAUCACCCAUGUAAGGUGAGAUACCAGUGAUAUGCUACACCCUUGGCAGCUCACGGCUGACUAUCAGCACACAUGUA", "MS2 coat protein", 27],
  ["GCACUACAUGAGGAUCACCCAUGUGCAGAUACCAGAGGUGUAUGCCUCCCUUGGCAGCUGCGUCGCUCUGGAAACUUAUUGGUUU", "MS2 coat protein", 18.4],
  ["UGAUCCUACAGAGAUACCAGUGCCGCUAGAUAACUAUGCACAUGAGGAUCACCCAUGUAACACCCUUGGCAGCUCAACUAAAGGG", "MS2 coat protein", 92.2],
  ["ACAUGAGGAUCACCCAUGUGAAGGCACGAUACCAGCUGAUCCCGUGGCCCUUGGCAGCGUCCGGUUUGGUCCGGCGGAUGAGACG", "MS2 coat protein", 24.1],
  ["AAAAUAAAUAAAACGCGUAACAUGAAGGAUACCAGCCAGAAAACUGGCCCUUGGCAGCCUCUACAUGAGGAUCACCCAUGUCGCG", "MS2 coat protein", 331],
  ["GAACAUGAGGAUCACCCAUGUUAAACAGAUACCAGUGAUAUAAUACACCCUUGGCAGCUGAAGCUGAAUAAUAAUUCCCUCAAGC", "MS2 coat protein", 12],
  ["AUAACAUGAGGAUCACCCAUGUAGAGUGAUACCAGACUACGUAAUGUCCCUUGGCAGCACAAGUAAAGUUACGAAUAUUGAUAGA", "MS2 coat protein", 192],
  ["AUCUUGUACCGUAAUACUUUACGUUGGGAUACCAGCAUGGACCCAUGCCCUUGGCAGCUUUACAUGAGGAUCACCCAUGUUGUAG", "MS2 coat protein", 36.6],
  ["AAUAACAUGAGGAUCACCCAUGUAAAAGAUACCAGAUGCAUGAUGAUCCCUUGGCAGCUUAACGCUGAUUGAUUACAAUCAGCGA", "MS2 coat protein", 28.6],
  ["GCACUACAUGAGGAUCACCCAUGUGCAGAUACCAGAGGUGUAUGCCUCCCUUGGCAGCUGCGUCGCUCUGGCAGCUUGUGGGUUG", "MS2 coat protein", 100],
  ["GGGCCCGGGCGCGAGCCCGGGCCCAUUGAUACCAGUGAAUGUGUACGCCCUUGGCAGCGAAUCCUAACAUGAGGAUCACCCAUGU", "MS2 coat protein", 43.3]
]}
